# TARGET_SYSTEM: Recombinant ROCK1 (amino acids 1-477) (Homo sapiens, UniProt Q13464)
# Construct: Recombinant ROCK1 (amino acids 1-477); by word order, ROCK1 from Carna Biosciences
# Sequence (Q13464 1-477): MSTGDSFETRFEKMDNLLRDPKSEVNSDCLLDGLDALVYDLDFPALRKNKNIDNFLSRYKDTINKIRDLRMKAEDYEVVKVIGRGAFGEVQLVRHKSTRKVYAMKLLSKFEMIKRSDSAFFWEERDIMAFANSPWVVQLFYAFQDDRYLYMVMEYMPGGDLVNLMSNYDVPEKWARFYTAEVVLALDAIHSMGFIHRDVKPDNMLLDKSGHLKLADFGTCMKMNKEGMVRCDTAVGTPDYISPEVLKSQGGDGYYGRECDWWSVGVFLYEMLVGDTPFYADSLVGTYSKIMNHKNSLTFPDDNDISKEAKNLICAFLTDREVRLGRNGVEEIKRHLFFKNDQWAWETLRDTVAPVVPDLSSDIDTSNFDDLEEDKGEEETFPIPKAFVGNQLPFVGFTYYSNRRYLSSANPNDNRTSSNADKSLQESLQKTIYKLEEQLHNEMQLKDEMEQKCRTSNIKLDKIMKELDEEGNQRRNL
# ASSAY_OVERVIEW: ROCK inhibition assay, LANCE Ultra TR-FRET kinase assay (ROCK1)
# MEASUREMENT_PARAMETERS: 1 μM ATP, 50 nM ULight-CREBtide substrate
QUANTITY: IC50

Problem: Need IC50, item CNC(=O)c1cccc([C@@H](C)n2cnc3cc(-c4cn[nH]c4Cl)ncc3c2=O)c1 [Compound 569]
Solution: < 10 nM

Problem: // next record CNC(=O)c1cc(F)cc(Cn2ccc3cc(-c4cn[nH]c4C(F)F)ccc3c2=O)c1 [Compound 289]
Solution: 11 to 100 nM

Problem: Now the same for [2H]C([2H])([2H])NC(=O)c1cccc(Cn2ccc3cc(-c4ccnn4C)ccc3c2=O)c1 [Compound 321]
Solution: 101 to 500 nM

Problem: Then this compound: Cc1[nH]ncc1-c1ccc2c(=O)n(C(CN)c3cccc(Cl)c3)cnc2c1 (centres unmarked) [Compound 494]
Solution: < 10 nM

Problem: Similarly, Cn1nccc1-c1ccc2c(=O)n(Cc3cc(F)cc(C(=O)N[C@H]4CC[C@H](O)CC4)c3)ccc2c1 [Compound 164] ?
Solution: 101 to 500 nM

Problem: Another compound: Cn1nccc1-c1ccc2c(c1)NCN([C@H](CO)c1cccc(Cl)c1)C2=O [Compound 526]
Solution: > 501 nM

Problem: Moving on to the next compound: CNC(=O)c1cccc(C(C)n2cc(CCO)c3cc(-c4cn[nH]c4F)ccc3c2=O)c1 (centres unmarked) [Compound 554]
Solution: 11 to 100 nM

Problem: Query Cc1nocc1-c1ccc2c(=O)n(Cc3cccc(O)c3)ccc2c1 [Compound 10] next
Solution: 11 to 100 nM

The values you see were collected from patent US12064426B2.
